- assayed.system: UniProtKB Q9NYK1
- test.description: TLR7 inhibition reporter assay (HEK-Blue, SEAP)
- stated.conditions: HEK-Blue cells overexpressing human TLR7, gardiquimod 7.5 μM stimulation
pIC50: −log10 of the molar value.
Overview of recorded pIC50 for various compounds
assay.metric: pIC50

# compound, assay.metric, quantitative.result
data = [
    ("Cc1cc(-c2[nH]c3ccc(-c4nnc(Cc5c[nH]c6ccccc56)o4)cc3c2C(C)C)ccn1", "pIC50", 5.64),
    ("CC(C)c1c(-c2ccnc3[nH]ncc23)[nH]c2ccc(-c3ccc4[nH]c(=O)cc(O)c4c3)cc12", "pIC50", 6.04),
    ("COc1ccc(-c2[nH]c3ccc(-c4ccnc(C(=O)NC5CCN(C(C)C)CC5)c4)cc3c2C(C)C)cc1OC", "pIC50", 7.66),
    ("COc1ccc(-c2[nH]c3ccc(-c4nnc(CN5CC6CNCC6C5)o4)cc3c2C(C)C)cc1OC (stereo not shown)", "pIC50", 6.64),
]

###

# IC50 listing for each entry below
- assayed.system: human TLR9 (Homo sapiens (Human))
- Sequence (Q9NR96 26-1032): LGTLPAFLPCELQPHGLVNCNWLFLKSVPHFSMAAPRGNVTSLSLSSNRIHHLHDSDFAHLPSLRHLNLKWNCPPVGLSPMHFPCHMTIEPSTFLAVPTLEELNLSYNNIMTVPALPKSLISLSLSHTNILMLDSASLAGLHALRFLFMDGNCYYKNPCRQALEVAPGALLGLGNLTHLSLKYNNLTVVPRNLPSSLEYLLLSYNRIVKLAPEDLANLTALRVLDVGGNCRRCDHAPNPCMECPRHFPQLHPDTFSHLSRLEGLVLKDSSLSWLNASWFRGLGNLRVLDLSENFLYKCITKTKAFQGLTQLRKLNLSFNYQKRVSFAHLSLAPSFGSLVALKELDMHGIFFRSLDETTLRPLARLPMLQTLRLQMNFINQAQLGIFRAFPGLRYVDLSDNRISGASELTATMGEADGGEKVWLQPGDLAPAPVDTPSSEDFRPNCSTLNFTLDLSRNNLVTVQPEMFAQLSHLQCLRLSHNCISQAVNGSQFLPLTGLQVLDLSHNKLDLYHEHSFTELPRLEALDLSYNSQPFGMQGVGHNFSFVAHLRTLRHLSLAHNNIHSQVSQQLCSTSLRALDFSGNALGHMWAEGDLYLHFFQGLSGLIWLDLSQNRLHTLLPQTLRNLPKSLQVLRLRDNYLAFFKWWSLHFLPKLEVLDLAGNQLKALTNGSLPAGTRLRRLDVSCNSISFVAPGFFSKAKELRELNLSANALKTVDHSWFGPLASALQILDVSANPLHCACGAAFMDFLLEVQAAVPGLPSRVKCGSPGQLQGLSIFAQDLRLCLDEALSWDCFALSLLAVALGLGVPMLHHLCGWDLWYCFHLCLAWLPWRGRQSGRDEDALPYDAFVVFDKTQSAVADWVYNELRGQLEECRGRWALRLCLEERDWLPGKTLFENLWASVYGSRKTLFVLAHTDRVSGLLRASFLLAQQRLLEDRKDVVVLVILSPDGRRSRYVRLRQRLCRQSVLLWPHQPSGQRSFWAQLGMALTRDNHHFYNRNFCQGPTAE
- test.description: TLR9 inhibition reporter assay (HEK-Blue, SEAP)
- stated.conditions: HEK-Blue cells overexpressing human TLR9, ODN2006 5 nM stimulation

# compound, assayed.system, IC50 / µM
measured = [
    ("Cc1cc(-c2[nH]c3ccc(-c4nnc(CCN(C)C)o4)cc3c2C(C)C)cc(C)n1 [Example 270]", "human TLR9 (Homo sapiens (Human))", 0.298),
    ("COc1ccc(-c2[nH]c3ccc(-c4cnc(N5CCN(CC(C)C)CC5)n4C)cc3c2C(C)C)cc1OC [Example 433]", "human TLR9 (Homo sapiens (Human))", 2.11),
    ("COc1ccc(-c2[nH]c3ccc(-c4nnc(C(=O)N5CCC(N6CCOCC6)C5)o4)cc3c2C(C)C)cc1OC (stereo not shown) [Example 99]", "human TLR9 (Homo sapiens (Human))", 16.3),
    ("COc1ccc(-c2[nH]c3ccc(-c4ccc(C5=CCNCC5)cc4)cc3c2C)cc1OC [Example 408]", "human TLR9 (Homo sapiens (Human))", 0.729),
]

###

- assayed.system: human TLR7 (Homo sapiens (Human))
- Sequence (Q9NYK1 27-1049): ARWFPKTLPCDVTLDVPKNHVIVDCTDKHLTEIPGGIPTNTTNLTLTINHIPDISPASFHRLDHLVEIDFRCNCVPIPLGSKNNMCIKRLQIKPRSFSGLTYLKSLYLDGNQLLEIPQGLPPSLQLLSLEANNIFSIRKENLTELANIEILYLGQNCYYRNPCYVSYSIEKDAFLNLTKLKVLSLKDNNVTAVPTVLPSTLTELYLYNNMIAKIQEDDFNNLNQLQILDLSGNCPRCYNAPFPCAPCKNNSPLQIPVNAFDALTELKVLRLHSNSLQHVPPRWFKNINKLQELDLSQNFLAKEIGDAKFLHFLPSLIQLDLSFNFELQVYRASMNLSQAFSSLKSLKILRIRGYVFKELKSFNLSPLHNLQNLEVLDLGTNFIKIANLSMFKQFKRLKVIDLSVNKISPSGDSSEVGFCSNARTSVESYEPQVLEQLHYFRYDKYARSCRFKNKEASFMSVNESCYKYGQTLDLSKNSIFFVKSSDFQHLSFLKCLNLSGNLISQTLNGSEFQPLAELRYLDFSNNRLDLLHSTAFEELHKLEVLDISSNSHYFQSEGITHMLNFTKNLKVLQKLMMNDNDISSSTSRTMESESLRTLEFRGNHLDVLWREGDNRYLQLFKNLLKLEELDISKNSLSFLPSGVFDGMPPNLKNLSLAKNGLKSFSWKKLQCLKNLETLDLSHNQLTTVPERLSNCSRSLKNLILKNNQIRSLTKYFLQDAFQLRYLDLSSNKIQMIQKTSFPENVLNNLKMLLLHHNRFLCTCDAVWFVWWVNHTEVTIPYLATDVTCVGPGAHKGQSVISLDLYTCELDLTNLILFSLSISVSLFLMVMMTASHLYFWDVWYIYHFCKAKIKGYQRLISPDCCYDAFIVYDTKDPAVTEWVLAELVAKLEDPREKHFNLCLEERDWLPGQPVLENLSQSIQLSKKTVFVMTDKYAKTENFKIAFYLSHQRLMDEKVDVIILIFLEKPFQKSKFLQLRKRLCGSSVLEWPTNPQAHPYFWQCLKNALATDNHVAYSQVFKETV
- test.description: TLR7 inhibition reporter assay (HEK-Blue, SEAP)
- stated.conditions: HEK-Blue cells overexpressing human TLR7, gardiquimod 7.5 μM stimulation
pIC50: −log10 of the molar value.
assay.metric: pIC50

# compound, assayed.system, quantitative.result
measured = [
    ("CNCCNc1ccc(-c2ccc3[nH]c(-c4ccnc(C)c4)c(C(C)C)c3c2)cn1", "human TLR7 (Homo sapiens (Human))", 7.96),
    ("CCc1c(-c2ccc(OC)c(OC)c2)[nH]c2ccc(-c3noc([C@@H](N)CCCCN)n3)cc12", "human TLR7 (Homo sapiens (Human))", 5.78),
    ("CCN(CC)C(=O)C1CCCN(C(=O)c2nnc(-c3ccc4[nH]c(-c5ccc(OC)c(OC)c5)c(C(C)C)c4c3)o2)C1 (stereo not shown)", "human TLR7 (Homo sapiens (Human))", 5.83),
    ("Cc1cc(-c2[nH]c3ccc(-c4cc5c(s4)CN(C(C)C)CC5)cc3c2C(C)C)ccn1", "human TLR7 (Homo sapiens (Human))", 7.30),
]

###

- assayed.system: UniProt Q9NR96
- test.description: TLR9 inhibition reporter assay (HEK-Blue, SEAP)
- stated.conditions: HEK-Blue cells overexpressing human TLR9, ODN2006 5 nM stimulation

# compound, IC50 [nM]
rows = [
    ("CC(C)c1c(-c2ccnc3[nH]ncc23)[nH]c2ccc(-c3nnc(C4CCNCC4)o3)cc12", 611),
    ("CC(C)c1c(-c2ccnc3[nH]ncc23)[nH]c2ccc(-c3cc4c(s3)CNCC4)cc12", 961),
    ("COc1ccc(-c2[nH]c3ccc(-c4nnc([C@H]5CCCNC5)o4)cc3c2CC(F)(F)F)cc1OC", 1470),
    ("COc1ccc(-c2[nH]c3ccc(-c4ccc(NCC5CCN(C)C5)cc4)cc3c2C(C)C)cc1OC (centres unmarked)", 3710),
    ("Cc1cc(-c2[nH]c3ccc(-c4ccc(N)nn4)cc3c2C(C)C)ccn1", 27000),
    ("Cc1cc(-c2[nH]c3ccc(-c4nnc(C5CN6CCC5CC6)o4)cc3c2C(C)C)cc(C)n1 (centres unmarked) [Example 296]", 310),
    ("CNCCN1CCC(c2nnc(-c3ccc4[nH]c(-c5ccc(OC)c(OC)c5)c(CC(F)(F)F)c4c3)o2)CC1", 316),
    ("COc1cc(-c2ccc3[nH]c(-c4ccnc5[nH]ncc45)c(C(C)C)c3c2)cnc1OC", 45200),
]

Each recorded value in this set is attributed to patent US11420958B2.
